# credit: patent US4746349A

Tested on: Nitrobacter spp.
Assay: Nitrite nitrogen in ammonium amended soil incubated at 25° C.
Settings: 0.50 ppm; week 0; soil 25° C.; 200 ppm N
Experimental: Determination of nitrite nitrogen and nitrate nitrogen in soil prepared in Example 1 above, which is amended with 200 ppm of nitrogen as aqueous ammonium sulfate, […], is determined using the nitrite and nitrate analysis of the American Organization of Analytical Chemists (AOAC pp. 653-655).
Counter-ions that a name gives are not always drawn.
Items are presented alongside their recorded Concentration of nitrite nitrogen.
Report the value in ppm with no unit label.

Completed entries (count: 2):
In plain terms, CC[C@@H](C(=O)[C@@H](C)[C@@H](O)[C@H](C)[C@@H]1O[C@@H]([C@@H](CC)C(=O)O)CC[C@@H]1C)[C@H]1O[C@]2(C=C[C@@H](O)[C@]3(CC[C@@](C)([C@H]4CC[C@](O)(CC)[C@H](C)O4)O3)O2)[C@H](C)C[C@@H]1C [Salinomycin monosodium salt, Salinomycin] has a documented Concentration of nitrite nitrogen of 9

In plain terms, CC[C@@]1([C@@H]2O[C@@H]([C@H]3O[C@@](O)(CO)[C@H](C)C[C@@H]3C)C[C@@H]2C)CC[C@H]([C@]2(C)CC[C@]3(C[C@H](O)[C@@H](C)[C@@H]([C@@H](C)[C@@H](OC)[C@H](C)C(=O)O)O3)O2)O1 [Monensin sodium salt, Monensin] has a documented Concentration of nitrite nitrogen of 6

Next up:
In plain terms, Clc1cccc(C(Cl)(Cl)Cl)n1 [Nitrapyrin] has a documented Concentration of nitrite nitrogen of 6

---

Items are presented alongside their recorded Concentration of nitrite nitrogen.
Test system: Nitrobacter spp.
Test: Nitrite nitrogen in ammonium amended soil incubated at 25° C.
Details: 0.50 ppm; week 20; soil 25° C.; 200 ppm N
Where a name gives a salt, the structure may show the parent alone.
State the value with its unit after it.

In plain terms, CC[C@@H](C(=O)[C@@H](C)[C@@H](O)[C@H](C)[C@@H]1O[C@@H]([C@@H](CC)C(=O)O)CC[C@@H]1C)[C@H]1O[C@]2(C=C[C@@H](O)[C@]3(CC[C@@](C)([C@H]4CC[C@](O)(CC)[C@H](C)O4)O3)O2)[C@H](C)C[C@@H]1C [Salinomycin monosodium salt, Salinomycin] has a documented Concentration of nitrite nitrogen of 14 ppm

In plain terms, CC[C@@H](C(=O)[C@@H](C)[C@@H](O)[C@H](C)CCc1ccc(C)c(O)c1C(=O)O)[C@H]1O[C@](CC)([C@H]2CC[C@](O)(CC)[C@H](C)O2)C[C@@H]1C [Lasalocid sodium salt, Lasalocid] has a documented Concentration of nitrite nitrogen of 7 ppm

In plain terms, Clc1cccc(C(Cl)(Cl)Cl)n1 has a documented Concentration of nitrite nitrogen of 34 ppm

In plain terms, CO[C@@H]1[C@@H](OC)[C@H](C)[C@@](O)(CC(=O)O)O[C@H]1[C@H](C)[C@H]1O[C@@]2(CC[C@@](C)([C@H]3CC[C@@](C)([C@@H]4O[C@@H]([C@H]5O[C@](C)(O)[C@H](C)C[C@@H]5C)C[C@@H]4O[C@@H]4C[C@H](OC)[C@@H](OC)[C@H](C)O4)O3)O2)C[C@H](O)[C@H]1C [Maduramicin monoammonium salt, Maduramicin] has a documented Concentration of nitrite nitrogen of 14 ppm

Next up:
In plain terms, CC[C@@]1([C@@H]2O[C@@H]([C@H]3O[C@@](O)(CO)[C@H](C)C[C@@H]3C)C[C@@H]2C)CC[C@H]([C@]2(C)CC[C@]3(C[C@H](O)[C@@H](C)[C@@H]([C@@H](C)[C@@H](OC)[C@H](C)C(=O)O)O3)O2)O1 [Monensin sodium salt, Monensin] has a documented Concentration of nitrite nitrogen of 22 ppm

---

System: Nitrobacter spp.
Assay: Nitrite nitrogen in ammonium amended soil incubated at 25° C.
Settings: 0.10 ppm; week 0; soil 25° C.; 200 ppm N
Where a name gives a salt, the structure may show the parent alone.
Measure: Concentration of nitrite nitrogen (ppm)
Report the value in ppm with no unit label.

Concentration of nitrite nitrogen of CC[C@@H](C(=O)[C@@H](C)[C@@H](O)[C@H](C)CCc1ccc(C)c(O)c1C(=O)O)[C@H]1O[C@](CC)([C@H]2CC[C@](O)(CC)[C@H](C)O2)C[C@@H]1C [Lasalocid sodium salt, Lasalocid] , assay on Nitrobacter spp., is 8

---

Test system: Nitrosomonas spp.
Assay: Nitrification of ammonium in soil incubated at 25° C. (ammonium recovery, nitrate accumulation)
Conditions: 0.50 ppm; week 12; soil 25° C.; 200 ppm N
Counter-ions that a name gives are not always drawn.
Measure: Concentration of nitrate nitrogen (PPM)
Report the value in PPM with no unit label.

In plain terms, CC[C@@H](C(=O)[C@@H](C)[C@@H](O)[C@H](C)[C@@H]1O[C@@H]([C@@H](CC)C(=O)O)CC[C@@H]1C)[C@H]1O[C@]2(C=C[C@@H](O)[C@]3(CC[C@@](C)([C@H]4CC[C@](O)(CC)[C@H](C)O4)O3)O2)[C@H](C)C[C@@H]1C [Salinomycin monosodium salt, Salinomycin] has a documented Concentration of nitrate nitrogen of 39

In plain terms, CO[C@@H]1[C@@H](OC)[C@H](C)[C@@](O)(CC(=O)O)O[C@H]1[C@H](C)[C@H]1O[C@@]2(CC[C@@](C)([C@H]3CC[C@@](C)([C@@H]4O[C@@H]([C@H]5O[C@](C)(O)[C@H](C)C[C@@H]5C)C[C@@H]4O[C@@H]4C[C@H](OC)[C@@H](OC)[C@H](C)O4)O3)O2)C[C@H](O)[C@H]1C [Maduramicin monoammonium salt, Maduramicin] has a documented Concentration of nitrate nitrogen of 18

---
In plain terms, CC[C@@]1([C@@H]2O[C@@H]([C@H]3O[C@@](O)(CO)[C@H](C)C[C@@H]3C)C[C@@H]2C)CC[C@H]([C@]2(C)CC[C@]3(C[C@H](O)[C@@H](C)[C@@H]([C@@H](C)[C@@H](OC)[C@H](C)C(=O)O)O3)O2)O1 [Monensin sodium salt, Monensin] has a documented Concentration of nitrate nitrogen of 22

In plain terms, Clc1cccc(C(Cl)(Cl)Cl)n1 has a documented Concentration of nitrate nitrogen of 49

In plain terms, CC[C@@H](C(=O)[C@@H](C)[C@@H](O)[C@H](C)CCc1ccc(C)c(O)c1C(=O)O)[C@H]1O[C@](CC)([C@H]2CC[C@](O)(CC)[C@H](C)O2)C[C@@H]1C [Lasalocid sodium salt, Lasalocid] has a documented Concentration of nitrate nitrogen of 20

---

System: Nitrobacter spp.
Assay: Nitrite nitrogen in ammonium amended soil incubated at 25° C.
Conditions: 0.25 ppm; week 9; soil 25° C.; 200 ppm N
Structures can show the parent of a compound that is named as a salt.
Measure: Concentration of nitrite nitrogen (ppm)
Report the value in ppm with no unit label.

Concentration of nitrite nitrogen of CC[C@@H](C(=O)[C@@H](C)[C@@H](O)[C@H](C)CCc1ccc(C)c(O)c1C(=O)O)[C@H]1O[C@](CC)([C@H]2CC[C@](O)(CC)[C@H](C)O2)C[C@@H]1C [Lasalocid sodium salt, Lasalocid] , assay on Nitrobacter spp., is 3

Concentration of nitrite nitrogen of CC[C@@H](C(=O)[C@@H](C)[C@@H](O)[C@H](C)[C@@H]1O[C@@H]([C@@H](CC)C(=O)O)CC[C@@H]1C)[C@H]1O[C@]2(C=C[C@@H](O)[C@]3(CC[C@@](C)([C@H]4CC[C@](O)(CC)[C@H](C)O4)O3)O2)[C@H](C)C[C@@H]1C [Salinomycin monosodium salt, Salinomycin] , assay on Nitrobacter spp., is 7

Concentration of nitrite nitrogen of CO[C@@H]1[C@@H](OC)[C@H](C)[C@@](O)(CC(=O)O)O[C@H]1[C@H](C)[C@H]1O[C@@]2(CC[C@@](C)([C@H]3CC[C@@](C)([C@@H]4O[C@@H]([C@H]5O[C@](C)(O)[C@H](C)C[C@@H]5C)C[C@@H]4O[C@@H]4C[C@H](OC)[C@@H](OC)[C@H](C)O4)O3)O2)C[C@H](O)[C@H]1C [Maduramicin monoammonium salt, Maduramicin] , assay on Nitrobacter spp., is 12

Next up:
Concentration of nitrite nitrogen of CC[C@@]1([C@@H]2O[C@@H]([C@H]3O[C@@](O)(CO)[C@H](C)C[C@@H]3C)C[C@@H]2C)CC[C@H]([C@]2(C)CC[C@]3(C[C@H](O)[C@@H](C)[C@@H]([C@@H](C)[C@@H](OC)[C@H](C)C(=O)O)O3)O2)O1 [Monensin sodium salt, Monensin] , assay on Nitrobacter spp., is 17

---

Items are presented alongside their recorded Recovery of Ammonium Nitrogen.
System: Nitrosomonas spp.
Assay: Nitrification of ammonium in soil incubated at 25° C. (ammonium recovery, nitrate accumulation)
Details: 0.10 ppm; week 16; soil 25° C.; 200 ppm N
Where a name gives a salt, the structure may show the parent alone.
Report the value in PPM with no unit label.

Completed entries (count: 2):
In plain terms, CC[C@@H](C(=O)[C@@H](C)[C@@H](O)[C@H](C)[C@@H]1O[C@@H]([C@@H](CC)C(=O)O)CC[C@@H]1C)[C@H]1O[C@]2(C=C[C@@H](O)[C@]3(CC[C@@](C)([C@H]4CC[C@](O)(CC)[C@H](C)O4)O3)O2)[C@H](C)C[C@@H]1C [Salinomycin monosodium salt, Salinomycin] has a documented Recovery of Ammonium Nitrogen of 5

In plain terms, CC[C@@]1([C@@H]2O[C@@H]([C@H]3O[C@@](O)(CO)[C@H](C)C[C@@H]3C)C[C@@H]2C)CC[C@H]([C@]2(C)CC[C@]3(C[C@H](O)[C@@H](C)[C@@H]([C@@H](C)[C@@H](OC)[C@H](C)C(=O)O)O3)O2)O1 [Monensin sodium salt, Monensin] has a documented Recovery of Ammonium Nitrogen of 5

---
In plain terms, CO[C@@H]1[C@@H](OC)[C@H](C)[C@@](O)(CC(=O)O)O[C@H]1[C@H](C)[C@H]1O[C@@]2(CC[C@@](C)([C@H]3CC[C@@](C)([C@@H]4O[C@@H]([C@H]5O[C@](C)(O)[C@H](C)C[C@@H]5C)C[C@@H]4O[C@@H]4C[C@H](OC)[C@@H](OC)[C@H](C)O4)O3)O2)C[C@H](O)[C@H]1C [Maduramicin monoammonium salt, Maduramicin] has a documented Recovery of Ammonium Nitrogen of 67

In plain terms, CC[C@@H](C(=O)[C@@H](C)[C@@H](O)[C@H](C)CCc1ccc(C)c(O)c1C(=O)O)[C@H]1O[C@](CC)([C@H]2CC[C@](O)(CC)[C@H](C)O2)C[C@@H]1C [Lasalocid sodium salt, Lasalocid] has a documented Recovery of Ammonium Nitrogen of 3
